# Method description: APR_HepG2_StressKinase_72hr: Apredica 72-hour HepG2 Assay for Stress Kinase (AID 2282921)
# Condition context: HepG2 stress kinase (phospho-c-Jun) imaging, actives raise or lower the signal
The source made the active and inactive calls. How the source made its calls: active means hit-call score of the fitted dose curve at least 0.9, where 1 is the maximum; inactive means score below 0.9.
Experimental readout: AC50

Check out these entries, answers already filled in.
Find the recorded AC50 belonging to "Cc1ccc(O)c(C)c1" and report it.
inactive

Fill in: AC50 of "Cc1ccccc1O" is ___
inactive

For the molecule "Oc1c(Cl)c(Cl)c(Cl)c(Cl)c1Cl" , what AC50 is on record?
inactive

Looking for the measured AC50 of "CCOC(=O)C(O)(c1ccc(Cl)cc1)c1ccc(Cl)cc1" , can you help?
inactive

Need AC50, item "CCC(C)(c1ccc(O)cc1)c1ccc(O)cc1"
34.3 µM (active)

---
Request the reported AC50 associated with "CN(C)CCO"
inactive

Give its AC50 value. Item: "c1ccc(-c2ccccc2)cc1"
inactive

Find the recorded AC50 belonging to "CCOCCOC(C)=O" and report it.
inactive

* * *

# Method description: Tanguay_ZF_120hpf_SOMI_legacy: (Legacy) Oregon State University Tanguay Lab 120 Hour Post-fertilization zebrafish Assay for Somite Malformation (AID 2283647)
Records with an inconclusive call do not appear. Active and inactive are the calls of the source. Rule for the calls: active = hit-call score of the fitted dose curve at least 0.9, where 1 is the maximum; inconclusive = response in the unintended direction; inactive = score below 0.9.
Experimental readout: outcome

Item under review: "CCNc1nc(NC(C)C)nc(SC)n1" . Reported outcome?
inactive

// returns reported outcome for input "Nn1cnnc1"
inactive

Consider the compound "CC(c1ccc(O)cc1)(c1ccc(O)cc1)c1ccc(O)cc1" and give its measured outcome.
inactive

What value of outcome has been recorded for this entry: "C[C@]12CCC(=O)C=C1CC[C@@H]1[C@@H]2CC[C@]2(C)C(=O)CC[C@@H]12"
inactive

Let us move to another entry and its outcome.
// returns reported outcome for input "CC#Cc1cc(C)nc(Nc2ccccc2)n1"
inactive

* * *

# Read-out: Cytochrome P450 7A1 (Homo sapiens) (UniProt P22680)
# Method description: LTEA_HepaRG_CYP7A1: Life Technologies and Expression Analysis (LTEA) Assay for Cytochrome P450 7A1 (CYP7A1) using HepaRG (AID 2283496)
# Condition context: mRNA level, 48 h; actives raise or lower the signal
Activity calls are given as the source filed them. The calls were made as follows: active = hit-call score of the fitted dose curve at least 0.9, where 1 is the maximum; inactive = score below 0.9.
// one of 1 = active, 0 = inactive, no free text

Assay outcome for "Cc1ccccc1CO[C@@H]1C[C@@]2(C(C)C)CC[C@]1(C)O2" : what was it?
0

Recorded test outcome, item "CC(C)(c1ccccc1)c1ccc(O)cc1"
1

Short answer needed: outcome of this test for "ClC1=C(Cl)[C@]2(Cl)[C@@H]3[C@H]4C[C@H]([C@@H]5O[C@H]45)[C@@H]3[C@@]1(Cl)C2(Cl)Cl" ?
1

Recorded test outcome, item "CC(C)(O)C(=O)Nc1ccc([N+](=O)[O-])c(C(F)(F)F)c1"
0

For this compound, state the assay outcome: "O=C(N[C@H]1CN2CCC1CC2)c1cc2ccoc2cn1"
0

// param item: "O=NN(c1ccccc1)c1ccccc1" ; yields the recorded call
0

Query: recorded result category for "CCOCCOC(C)=O" in this test
0

Hey, what did the test say about "CN(C)CCO" ?
0

Hi, do you know how "ClC(Cl)=C(c1ccc(Cl)cc1)c1ccc(Cl)cc1" came out in this test?
0

* * *

# Target or test system: Transcription factor Sp1 (Homo sapiens)
# Method description: ATG_Sp1_CIS: Attagene CIS-FACTORIAL HepG2 Assay for human Specificity Protein 1 (Sp1) (AID 2282961)
# Condition context: HepG2 Sp1 cis-reporter transcription, actives raise or lower the signal
Activity calls are given as the source filed them. The calls were made as follows: active = hit-call score of the fitted dose curve at least 0.9, where 1 is the maximum; inactive = score below 0.9.
Permitted responses: y for active, n for inactive

Given "ClC(Cl)=C(c1ccc(Cl)cc1)c1ccc(Cl)cc1" , state the outcome it received in this test.
y

Assay result, entry "Oc1ccc(Cl)cc1Cl" — outcome?
n

Hello, I am checking results. What call was entered for CCC(C)c1cc([N+](=O)[O-])cc([N+](=O)[O-])c1O (configuration not stated) ?
y

Identify the outcome logged in this assay for the molecule shown: "C[C@]12CCC(=O)C=C1CC[C@@H]1[C@@H]2CC[C@@]2(C)[C@H]1CC[C@]2(C)O"
n

Would you mind telling me which call this test gave C1CC2OC2CC1C1CO1 (configuration not stated) ?
n

Could you check what this test reported for "CC(c1ccc(O)cc1)(c1ccc(O)cc1)c1ccc(O)cc1" ?
y

Given "Cc1ccccc1CO[C@@H]1C[C@@]2(C(C)C)CC[C@]1(C)O2" , state the outcome it received in this test.
n

Call for entry "N#Cc1ccc(N(CC(N)=O)CC(F)(F)F)cc1C(F)(F)F" :
n

Check the results log: what was the call for "Clc1ccc(Cl)cc1" ?
n

What did the test return for "O=C(O)C(F)(F)C(F)(F)C(F)(F)C(F)(F)C(F)(F)F" ?
n

What is the recorded call for this molecule in the test? "CCC(C)(CC)c1cc(NC(=O)c2c(OC)cccc2OC)on1"
n

Lab log entry: "ClC1=C(Cl)[C@]2(Cl)[C@@H]3[C@@H](Cl)[C@H]4O[C@H]4[C@@H]3C1(Cl)C2(Cl)Cl" — outcome as called in the assay?
y
